SYSTEM NAME: B2 bradykinin receptor (Homo sapiens, UniProt P30411)
Sequence (P30411 whole entry): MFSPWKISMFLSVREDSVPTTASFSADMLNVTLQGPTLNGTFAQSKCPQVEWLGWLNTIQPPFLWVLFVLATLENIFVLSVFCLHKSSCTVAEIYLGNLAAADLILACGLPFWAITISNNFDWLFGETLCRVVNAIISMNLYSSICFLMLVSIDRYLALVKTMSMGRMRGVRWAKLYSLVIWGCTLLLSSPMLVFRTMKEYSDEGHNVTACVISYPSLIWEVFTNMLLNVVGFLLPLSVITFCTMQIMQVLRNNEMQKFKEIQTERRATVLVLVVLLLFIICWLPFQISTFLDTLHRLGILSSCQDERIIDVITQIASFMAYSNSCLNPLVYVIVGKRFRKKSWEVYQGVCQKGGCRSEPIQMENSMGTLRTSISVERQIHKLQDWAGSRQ
ASSAY METHOD TEXT: Antagonism of the [Ca2+] efflux actions of human Bradykinin receptor B2 (SK-N-SH neuroblastoma)
Format: functional
REPORTED METRIC: IC50

# lookup: IC50 of "CN(C)CCCN(C)CCNC(=O)[C@@H]1CCCN1S(=O)(=O)c1ccc(NNC(=O)NC2c3ccccc3CCc3ccccc32)c([N+](=O)[O-])c1" 91 nM

* * *

Sequence of the target: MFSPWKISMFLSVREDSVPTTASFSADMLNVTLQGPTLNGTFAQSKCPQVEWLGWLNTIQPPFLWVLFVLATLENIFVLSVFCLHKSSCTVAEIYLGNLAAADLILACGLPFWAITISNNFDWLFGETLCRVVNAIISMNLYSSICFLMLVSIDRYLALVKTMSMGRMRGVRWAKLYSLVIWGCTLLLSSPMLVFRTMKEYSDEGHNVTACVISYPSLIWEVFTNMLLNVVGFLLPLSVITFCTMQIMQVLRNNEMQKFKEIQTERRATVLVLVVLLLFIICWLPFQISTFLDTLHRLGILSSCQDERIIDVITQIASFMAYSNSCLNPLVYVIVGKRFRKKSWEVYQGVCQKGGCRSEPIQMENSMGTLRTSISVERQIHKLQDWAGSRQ
Provide the recorded pKi for the entries that follow.
Give bare numbers, as −log10 of the molar value.

Answered examples (3):
>  <MOL SMILES>
CN(C)CCN(C)CCNC(=O)c1cccn1S(=O)(=O)c1ccc(N/N=C(\S)NC2c3ccccc3CCc3ccccc32)c([N+](=O)[O-])c1

>  <REPORTED METRIC>
pKi

>  <EXPERIMENTAL RESULT>
8.83

$$$$
>  <MOL SMILES>
CN(C)CCCN(C)CCNC(=O)[C@@H]1CCCN1S(=O)(=O)c1ccc(N/N=C(\S)NC2c3ccccc3-c3ccccc32)c([N+](=O)[O-])c1

>  <REPORTED METRIC>
pKi

>  <EXPERIMENTAL RESULT>
6.19

$$$$
>  <MOL SMILES>
CN(C)CCN(C)CCNC(=O)[C@@H]1CCCN1S(=O)(=O)c1ccc(N/N=C(\S)NC(c2ccccc2Cl)c2ccccc2Cl)c([N+](=O)[O-])c1

>  <REPORTED METRIC>
pKi

>  <EXPERIMENTAL RESULT>
7.47

$$$$

Now, please, on to the next compound.
# lookup: pKi of "CN(C)CCN(C)CCNC(=O)[C@H]1CCCN1S(=O)(=O)c1ccc(NNC(=S)NC(c2ccccc2)c2ccccc2)c([N+](=O)[O-])c1" 5.84

* * *

SYSTEM NAME: B2 bradykinin receptor (Rattus norvegicus, UniProt P25023)
ASSAY METHOD TEXT: Inhibition of Bradykinin receptor B2-mediated contractions of rat uterus smooth muscle
Format: functional, tissue-based
Provide the recorded pIC50 for the entries that follow.
Numbers only, as −log10 of the molar value.

Batch: pIC50 for all items listed.
1. CN(C)CCCN(C)CCNC(=O)[C@@H]1CCCN1S(=O)(=O)c1ccc(NNC(=O)NC2c3ccccc3CCc3ccccc32)c([N+](=O)[O-])c1
2. CN(C)CCCN(C)CCNC(=O)c1cccn1S(=O)(=O)c1ccc(NNC(=O)NC2c3ccccc3CCc3ccccc32)c([N+](=O)[O-])c1

8.62
8.72

* * *

Hi! I'm sharing some Ki results obtained with B2 bradykinin receptor (Homo sapiens, UniProt P30411).
A complete answer gives the number followed by the unit.

Answered examples (2):
>  <MOL SMILES>
CN(C)CCN(C)CCNC(=O)c1cccn1S(=O)(=O)c1ccc(NNC(=S)NC(c2ccccc2)c2ccccc2)c([N+](=O)[O-])c1

>  <SYSTEM NAME>
B2 bradykinin receptor (Homo sapiens, UniProt P30411)

>  <Ki>
237 nM

$$$$
>  <MOL SMILES>
CN(C)CCCN(C)CCNC(=O)[C@@H]1CCCN1S(=O)(=O)c1ccc(N/N=C(\S)NC(c2ccccc2)c2ccccc2)c([N+](=O)[O-])c1

>  <SYSTEM NAME>
B2 bradykinin receptor (Homo sapiens, UniProt P30411)

>  <Ki>
119 nM

$$$$

Now, please, on to the next compound.
# lookup: Ki of "CN(C)CCCN(C)CCCNC(=O)[C@@H]1CCCN1S(=O)(=O)c1ccc(N/N=C(\S)NC(c2ccccc2)c2ccccc2)c([N+](=O)[O-])c1" 95 nM

* * *

ASSAY METHOD TEXT: Solubility at pH 7.4
Format: physicochemical
RECORDED CONDITIONS: buffer
REPORTED METRIC: solubility (µg/mL)
Give bare numbers, in µg/mL.

# lookup: solubility of "CN(C)CCCN(C)CCNC(=O)c1cccn1S(=O)(=O)c1ccc(NNC(=O)NC2c3ccccc3CCc3ccccc32)c([N+](=O)[O-])c1" 400

* * *

SYSTEM NAME: B2 bradykinin receptor (Homo sapiens, UniProt P30411)
Sequence (P30411 whole entry): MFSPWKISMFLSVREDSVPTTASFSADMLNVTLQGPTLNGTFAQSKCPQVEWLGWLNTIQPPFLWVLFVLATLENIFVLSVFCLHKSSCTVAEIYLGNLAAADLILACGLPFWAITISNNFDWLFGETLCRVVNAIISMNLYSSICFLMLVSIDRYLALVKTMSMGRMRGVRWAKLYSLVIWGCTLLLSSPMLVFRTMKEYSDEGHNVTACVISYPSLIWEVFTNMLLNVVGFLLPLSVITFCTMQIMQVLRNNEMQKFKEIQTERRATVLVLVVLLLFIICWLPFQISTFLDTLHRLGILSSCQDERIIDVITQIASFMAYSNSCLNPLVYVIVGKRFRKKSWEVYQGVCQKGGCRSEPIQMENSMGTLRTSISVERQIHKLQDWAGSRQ
ASSAY METHOD TEXT: Antagonism of the [Ca2+] efflux actions of human Bradykinin receptor B2 (WI38 fibroblasts)
Type: functional
REPORTED METRIC: IC50 (nM)
Answers are plain numbers, in nM.

# lookup: IC50 of "CN(C)CCCN(C)CCNC(=O)[C@@H]1CCCN1S(=O)(=O)c1ccc(NNC(=O)NC2c3ccccc3CCc3ccccc32)c([N+](=O)[O-])c1" 17

* * *

SYSTEM NAME: B2 bradykinin receptor (Rattus norvegicus, UniProt P25023)
Sequence (P25023 whole entry): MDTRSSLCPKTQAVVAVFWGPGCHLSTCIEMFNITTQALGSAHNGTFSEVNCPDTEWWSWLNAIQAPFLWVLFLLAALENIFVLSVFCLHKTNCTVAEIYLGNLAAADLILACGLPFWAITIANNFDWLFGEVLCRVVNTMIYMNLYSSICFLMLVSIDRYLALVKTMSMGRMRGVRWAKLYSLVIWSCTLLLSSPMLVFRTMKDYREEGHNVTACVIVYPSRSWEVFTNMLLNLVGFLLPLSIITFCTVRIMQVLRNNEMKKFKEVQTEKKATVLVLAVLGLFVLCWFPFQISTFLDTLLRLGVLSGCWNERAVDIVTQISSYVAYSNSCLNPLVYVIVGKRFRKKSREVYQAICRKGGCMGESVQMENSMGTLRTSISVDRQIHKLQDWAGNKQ
REPORTED METRIC: Ki
A complete answer gives the number followed by the unit.

>  <MOL SMILES>
CN(C)CCCN(C)CCNC(=O)[C@@H]1CCCN1S(=O)(=O)c1ccc(N/N=C(\S)NC(c2ccccc2)c2ccccc2)c([N+](=O)[O-])c1

>  <SYSTEM NAME>
B2 bradykinin receptor (Rattus norvegicus, UniProt P25023)

>  <EXPERIMENTAL RESULT>
0.023 nM

$$$$
>  <MOL SMILES>
CN(C)CCN(C)CCNC(=O)[C@@H]1CCCN1S(=O)(=O)c1ccc(NNC(=S)NC2c3ccccc3CCc3ccccc32)c([N+](=O)[O-])c1

>  <SYSTEM NAME>
B2 bradykinin receptor (Rattus norvegicus, UniProt P25023)

>  <EXPERIMENTAL RESULT>
14.5 nM

$$$$
>  <MOL SMILES>
CN(C)CCCN(C)CCNC(=O)[C@@H]1CCCN1S(=O)(=O)c1ccc(NNC(=O)NC2c3ccccc3CCc3ccccc32)c([N+](=O)[O-])c1

>  <SYSTEM NAME>
B2 bradykinin receptor (Rattus norvegicus, UniProt P25023)

>  <EXPERIMENTAL RESULT>
10.7 nM

$$$$

Now, please, on to the next compound.
# lookup: Ki of "CN(C)CCN(C)CCNC(=O)[C@@H]1CCCN1S(=O)(=O)c1ccc(N/N=C(\S)NC(c2ccccc2Cl)c2ccccc2Cl)c([N+](=O)[O-])c1" 5.46 nM
